Molecular target: EGFR L858R/T790M/C797S (H1975-clone #25) (Homo sapiens, UniProt P00533, C797S/L858R/T790M)
Construct: expressed in transfected cells; host or cells: H1975 (clone #25), lentiviral transduction, endogenous EGFR knocked out
Sequence (P00533 25-1210 T790M/C797S/L858R): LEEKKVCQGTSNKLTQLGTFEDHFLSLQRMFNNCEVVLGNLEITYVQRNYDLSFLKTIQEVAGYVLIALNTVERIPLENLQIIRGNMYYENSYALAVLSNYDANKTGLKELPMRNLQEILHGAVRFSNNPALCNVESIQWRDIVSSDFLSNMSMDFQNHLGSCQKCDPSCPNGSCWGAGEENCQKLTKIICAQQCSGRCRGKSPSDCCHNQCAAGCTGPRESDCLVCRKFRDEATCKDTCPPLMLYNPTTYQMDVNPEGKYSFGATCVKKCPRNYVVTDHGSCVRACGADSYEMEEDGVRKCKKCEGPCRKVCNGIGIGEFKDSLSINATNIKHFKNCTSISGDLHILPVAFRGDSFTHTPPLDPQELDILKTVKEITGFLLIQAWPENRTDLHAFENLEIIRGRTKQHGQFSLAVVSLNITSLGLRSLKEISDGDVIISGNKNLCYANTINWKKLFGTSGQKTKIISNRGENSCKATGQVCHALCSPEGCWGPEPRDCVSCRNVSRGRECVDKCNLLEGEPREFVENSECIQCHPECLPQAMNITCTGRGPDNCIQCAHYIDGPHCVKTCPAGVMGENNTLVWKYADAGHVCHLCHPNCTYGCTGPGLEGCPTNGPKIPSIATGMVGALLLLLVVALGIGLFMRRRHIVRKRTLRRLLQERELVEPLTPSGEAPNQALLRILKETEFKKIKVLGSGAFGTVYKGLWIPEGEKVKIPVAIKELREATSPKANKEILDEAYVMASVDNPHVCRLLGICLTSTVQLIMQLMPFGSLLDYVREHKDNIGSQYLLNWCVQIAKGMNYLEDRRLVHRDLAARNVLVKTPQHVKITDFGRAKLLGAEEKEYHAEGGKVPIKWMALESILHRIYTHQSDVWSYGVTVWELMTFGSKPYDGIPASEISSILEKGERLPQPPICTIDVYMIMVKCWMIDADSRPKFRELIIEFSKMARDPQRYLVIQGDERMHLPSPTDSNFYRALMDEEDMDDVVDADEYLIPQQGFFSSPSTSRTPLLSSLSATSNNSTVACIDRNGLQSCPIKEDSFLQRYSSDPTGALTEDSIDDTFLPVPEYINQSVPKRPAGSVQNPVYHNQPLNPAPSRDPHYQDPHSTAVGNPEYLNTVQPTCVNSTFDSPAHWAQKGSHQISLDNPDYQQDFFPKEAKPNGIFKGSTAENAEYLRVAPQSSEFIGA
Experiment: EGFR degradation, HTRF total-EGFR assay, H1975-clone #25 (LTC)
Assay type: cell-based
Conditions: H1975-clone #25 L858R/T790M/C797S, 16 h treatment
RECORDED_ENDPOINT: Degradation H1975 # 25-LTC

INSERT INTO assay_data (compound, test_result) VALUES
  ('Cc1cc2cc(n1)-c1cnn(C)c1OC[C@H]1C[C@@H](CN3/C(=N/C2=O)Nc2ccc(N4CCC(N5CCN(c6ccc(C7CCC(=O)NC7=O)nc6C)C[C@@H]5C)CC4)cc23)C1 (some centres unmarked)', 91.3),
  ('Cc1cc2cc(n1)-c1cnn(C)c1OC[C@H]1C[C@@H](CN3/C(=N/C2=O)Nc2ccc(N4CC5CCC4CN5C4CCN(c5cnc(C6CCC(=O)NC6=O)cc5C)CC4)cc23)C1 (some centres unmarked)', 88.3),
  ('COC[C@@H]1CN(c2ccc3c(c2)N2C[C@H]4C[C@@H](COc5c(cnn5C)-c5cc(cc(C)n5)C(=O)/N=C/2N3)C4)CCN1C1CCN(c2cc(F)c([C@H]3CCC(=O)NC3=O)c(F)c2)CC1', 92.5),
  ('Cc1cc2cc(n1)-c1cnn(C)c1OC[C@H]1C[C@@H](CN3/C(=N/C2=O)Nc2ccc(N(C)C4CN(C5CCN(c6cnc(C7CCC(=O)NC7=O)cc6C)CC5)C4)cc23)C1 (some centres unmarked)', 84.2),
  ('Cc1cc2cc(n1)-c1cnn(C)c1OC[C@H]1C[C@@H](CN3/C(=N/C2=O)Nc2ccc(N4CCN([C@@H]5CCN(c6cnc(C7CCC(=O)NC7=O)cc6C)C[C@@H]5F)CC4)cc23)C1 (some centres unmarked)', 92.1);

---

Molecular target: EGFR Del19/T790M/C797S (H1975-clone #28) (Homo sapiens, UniProt P00533, T790M/C797S, form not given)
Sequence (P00533 with tags, fused parts or gaps DEL746-750/T790M/C797S, form open): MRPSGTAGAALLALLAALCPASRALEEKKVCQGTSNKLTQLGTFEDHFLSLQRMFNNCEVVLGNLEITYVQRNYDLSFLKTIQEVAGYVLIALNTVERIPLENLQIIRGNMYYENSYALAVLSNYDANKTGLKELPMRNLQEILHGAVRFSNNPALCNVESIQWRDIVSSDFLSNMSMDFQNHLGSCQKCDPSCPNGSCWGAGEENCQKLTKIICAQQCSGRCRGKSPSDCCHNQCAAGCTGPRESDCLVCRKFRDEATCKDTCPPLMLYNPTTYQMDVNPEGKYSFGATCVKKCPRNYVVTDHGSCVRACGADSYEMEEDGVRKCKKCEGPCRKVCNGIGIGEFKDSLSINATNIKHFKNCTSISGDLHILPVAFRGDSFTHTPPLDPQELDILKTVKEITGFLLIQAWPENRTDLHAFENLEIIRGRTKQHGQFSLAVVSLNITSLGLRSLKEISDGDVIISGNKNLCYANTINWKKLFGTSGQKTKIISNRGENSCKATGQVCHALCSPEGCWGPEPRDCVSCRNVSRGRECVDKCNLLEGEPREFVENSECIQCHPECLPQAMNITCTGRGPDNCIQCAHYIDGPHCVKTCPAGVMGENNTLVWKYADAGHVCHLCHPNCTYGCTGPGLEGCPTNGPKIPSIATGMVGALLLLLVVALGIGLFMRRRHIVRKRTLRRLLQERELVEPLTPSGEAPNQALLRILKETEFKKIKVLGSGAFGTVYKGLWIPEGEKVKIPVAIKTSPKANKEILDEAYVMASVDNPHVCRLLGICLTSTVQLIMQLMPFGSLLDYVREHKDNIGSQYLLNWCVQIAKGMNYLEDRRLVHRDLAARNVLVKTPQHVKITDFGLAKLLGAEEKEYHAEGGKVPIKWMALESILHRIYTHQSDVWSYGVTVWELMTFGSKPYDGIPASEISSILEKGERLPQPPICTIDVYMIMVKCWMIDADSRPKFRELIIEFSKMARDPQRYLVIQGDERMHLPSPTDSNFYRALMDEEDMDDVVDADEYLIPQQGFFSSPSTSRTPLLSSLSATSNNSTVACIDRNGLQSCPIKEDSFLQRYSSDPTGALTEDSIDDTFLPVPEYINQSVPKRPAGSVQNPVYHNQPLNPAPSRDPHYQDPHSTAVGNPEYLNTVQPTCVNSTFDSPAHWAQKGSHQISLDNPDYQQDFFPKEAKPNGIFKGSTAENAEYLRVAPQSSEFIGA
Experiment: EGFR degradation, HTRF total-EGFR assay, H1975-clone #28 (DTC)
Type: cell-based
Conditions: H1975-clone #28 Del19/T790M/C797S, 16 h treatment
RECORDED_ENDPOINT: Degradation H1975 # 28 DTC

INSERT INTO assay_data (compound, recorded_endpoint, test_result) VALUES
  ('Cc1cc2cc(n1)-c1cnn(C)c1OC[C@H]1C[C@@H](CN3/C(=N/C2=O)Nc2ccc(CN4CCN(C(=O)C5CN(c6cc(F)c([C@H]7CCC(=O)NC7=O)c(F)c6)CC5(C)C)CC4)cc23)C1 (some centres unmarked) [Example 4]', 'Degradation H1975 # 28 DTC', 84.6),
  ('Cc1cc2cc(n1)-c1cnn(C)c1OC[C@H]1C[C@@H](CN3/C(=N/C2=O)Nc2ccc(N4CCN(C5CCN(c6ccc(C7CCC(=O)NC7=O)nc6C)CC5)CC4=O)cc23)C1 (some centres unmarked) [Example 22]', 'Degradation H1975 # 28 DTC', 89.5),
  ('Cc1cc2cc(n1)-c1cnn(C)c1OC[C@H]1C[C@@H](CN3/C(=N/C2=O)Nc2ccc(N4CCN(C5CN(c6cc(F)c([C@H]7CCC(=O)NC7=O)c(F)c6)C5)CC4)cc23)C1 [Example 29]', 'Degradation H1975 # 28 DTC', 78.3),
  ('Cc1cc2cc(n1)-c1cnn(C)c1OC[C@H]1C[C@@H](CN3/C(=N/C2=O)Nc2ccc(N4CCN(C5CCN(c6cnc([C@H]7CCC(=O)NC7=O)cc6C)CC5)C[C@@H]4C)cc23)C1 [Example 32]', 'Degradation H1975 # 28 DTC', 88.8),
  ('Cc1cc2cc(n1)-c1cnn(C)c1OC[C@H]1C[C@@H](CN3/C(=N/C2=O)Nc2ccc(N4CCN(C5CCN(c6cnc(C7CCC(=O)NC7=O)c(F)c6)CC5)CC4)cc23)C1 (single isomer, unassigned) [Example 38]', 'Degradation H1975 # 28 DTC', 78.4);
